Target: T1, human ICOS-mFc (Chimerigen) (human, UniProt Q9Y6W8 21-140)
T1 construct: also called human ICOS receptor; human ICOS Receptor; not shown: mouse Fc of the bought construct
T1 sequence: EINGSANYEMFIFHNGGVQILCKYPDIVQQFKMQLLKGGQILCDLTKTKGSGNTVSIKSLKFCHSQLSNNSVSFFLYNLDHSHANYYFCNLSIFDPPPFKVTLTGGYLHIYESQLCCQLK
Assay: HTRF neutralisation of Alexa 647 human B7-H2 binding to human ICOS-mFc; human IgG4.PE; mean, n = 4
The reader will find reported pIC50 values listed item by item below.
FYI, pIC50 means -log10 of a concentration in mol per litre.

Example entries and their recorded answers appear below.
binder: STIM002-B human IgG4.PE (antibody, V domains shown, Human IgG4.PE (null-effector) format) VH: QVQLVQSGGEVKKPGASVKVSCKASGYTFTSYGFSWVRQAPGQGLEWMGWISAYNGNTNYAQKLQGRVTMTTDTSTSTAYMELRSLRSDDTAVYYCARSTYFYGSGTLYGMDVWGQGTTVTVSS VL: DIVMTQSPLSLPVTPGEPASISCRSSQSLLHSDGYNCLDWYLQKPGQSPQLLIYLGSTRASGFPDRFSGSGSGTDFTLKISRVEAEDVGVYYCMQALQTPCSFGQGTKLEIK
pIC50: 8.47
//
binder: STIM005 human IgG4.PE (antibody, V domains shown, Human IgG4.PE (null-effector) format) VH: QVQLVQSGAEVKKPGASVKVSCKASGYTFNSYGIIWVRQAPGQGLEWMGWISVHNGNTNCAQKLQGRVTMTTDTSTSTAYMELRSLRTDDTAVYYCARAGYDILTDFSDAFDIWGHGTMVTVSS VL: DIQMTQSPSSLSASVGDRVTITCRASQNINNFLNWYQQKEGKGPKLLIYAASSLQRGIPSTFSGSGSGTDFTLTISSLQPEDFATYICQQSYGIPWVGQGTKVEIK
pIC50: 8.80

Would you kindly look at the next entry?
**Query** I have this binder here, STIM003 human IgG4.PE (antibody, V domains shown, Human IgG4.PE (null-effector) format) VH: EVQLVESGGGVVRPGGSLRLSCVASGVTFDDYGMSWVRQAPGKGLEWVSGINWNGGDTDYSDSVKGRFTISRDNAKNSLYLQMNSLRAEDTALYYCARDFYGSGSYYHVPFDYWGQGILVTVSS VL: EIVLTQSPGTLSLSPGERATLSCRASQSVSRSYLAWYQQKRGQAPRLLIYGASSRATGIPDRFSGDGSGTDFTLSISRLEPEDFAVYYCHQYDMSPFTFGPGTKVDIK , and I need its recorded pIC50.
**Result** 8.92

The reported measurements were obtained from patent US20180066058A1.
